Experiment: Cellular cytotoxicity in Molt4 cells
Type: cell-based
Details: human, Measured via XTT
Below, each entry is listed alongside its reported CC50.
ENDPOINT LABEL: CC50 (µM)

INSERT INTO assay_data (compound, value_unit, numeric_result) VALUES
  ('C[C@H]1[C@@H](C)Oc2c3c(c4c(-c5ccccc5)cc(=O)oc4c2[C@@H]1O)OC(C)(C)C=C3 [Inophyllum D]', 'µM', 15),
  ('C[C@H]1Oc2c3c(c4c(-c5ccccc5)cc(=O)oc4c2C(=O)[C@@H]1C)OC(C)(C)C=C3 [Inophyllum C]', 'µM', 18),
  ('C[C@@H]1[C@H](O)c2c(c3c(c4c(-c5ccccc5)cc(=O)oc24)OC(C)(C)C=C3)O[C@@H]1C [Inophyllum A]', 'µM', 33),
  ('C[C@@H]1C(=O)c2c(c3c(c4c(-c5ccccc5)cc(=O)oc24)OC(C)(C)C=C3)O[C@@H]1C [Inophyllum E]', 'µM', 6.2),
  ('C[C@@H]1[C@@H](C)Oc2c3c(c4c(-c5ccccc5)cc(=O)oc4c2[C@@H]1O)OC(C)(C)C=C3 [Inophyllum P]', 'µM', 25),
  ('C/C=C(\C)C(=O)c1c(OC)c2c(c3c(-c4ccccc4)cc(=O)oc13)OC(C)(C)C=C2 [Calophyllolide]', 'µM', 4.5),
  ('C[C@H]1[C@H](O)c2c(c3c(c4c(-c5ccccc5)cc(=O)oc24)OC(C)(C)C=C3)O[C@@H]1C [Inophyllum B]', 'µM', 55);

----------
Below, each entry is listed alongside its reported pIC50.
Biological target: HIV reverse transcriptase (Human immunodeficiency virus type 1 group M subtype B, UniProt P03366)
Construct: Recombinant HIV reverse transcriptase; made in house
Assay: HIV reverse transcriptase inhibition (TCA precipitation assay / scintillation proximity assay)
Assay type: biochemical
Details: Compounds 22 and 23, Example 7; read-out: Reverse Transcriptase Activity: IC50
pIC50: −log10 of the molar value.
ENDPOINT LABEL: pIC50

INSERT INTO measurements (compound, numeric_result) VALUES
  ('CCCc1cc(=O)oc2c3c(c4c(c12)OC(C)(C)C=C4)O[C@@H](C)C[C@@H]3O (relative stereo)', 5.75),
  ('CCCc1cc(=O)oc2c3c(c4c(c12)OC(C)(C)C=C4)O[C@@H](C)C[C@H]3O (relative stereo)', 6.22);

----------
Target: HIV reverse transcriptase (Human immunodeficiency virus type 1 group M subtype B, UniProt P03366)
Construct: Recombinant HIV reverse transcriptase; made in house
Assay: HIV reverse transcriptase inhibition (TCA precipitation assay / scintillation proximity assay)
Format: biochemical
Conditions: recombinant HIV RT; RT inhibition results table of Example 5; read-out: IC50
Below, each entry is listed alongside its reported IC50.
ENDPOINT LABEL: IC50

INSERT INTO assay_data (compound, result) VALUES
  ('C[C@H]1Oc2c3c(c4c(-c5ccccc5)cc(=O)oc4c2C(=O)[C@@H]1C)OC(C)(C)C=C3', '> 50 µM'),
  ('C/C=C(\C)C(=O)c1c(OC)c2c(c3c(-c4ccccc4)cc(=O)oc13)OC(C)(C)C=C2 [Calophyllolide]', '> 50 µM'),
  ('C[C@H]1[C@@H](C)Oc2c3c(c4c(-c5ccccc5)cc(=O)oc4c2[C@@H]1O)OC(C)(C)C=C3', '30 µM');

----------
Target: HIV reverse transcriptase (Human immunodeficiency virus type 1 group M subtype B)
Construct: Recombinant HIV reverse transcriptase; made in house
Assay: HIV reverse transcriptase inhibition (TCA precipitation assay / scintillation proximity assay)
Assay type: biochemical
Conditions: recombinant HIV RT; RT inhibition results table of Example 5; read-out: IC50
pIC50: −log10 of the molar value.
ENDPOINT LABEL: pIC50

INSERT INTO assay_data (compound, endpoint_label, comparative_sign, numeric_result) VALUES
  ('C[C@@H]1[C@H](O)c2c(c3c(c4c(-c5ccccc5)cc(=O)oc24)O[C@H]2[C@@H]3C2(C)C)O[C@@H]1C [Inophyllum G2]', 'pIC50', '<', 4.30),
  ('C[C@H]1[C@H](O)c2c(c3c(c4c(-c5ccccc5)cc(=O)oc24)OC(C)(C)C=C3)O[C@@H]1C [Inophyllum B]', 'pIC50', '=', 6.52),
  ('C[C@@H]1[C@@H](C)Oc2c3c(c4c(-c5ccccc5)cc(=O)oc4c2[C@@H]1O)OC(C)(C)C=C3 [Inophyllum P]', 'pIC50', '=', 6.22),
  ('C[C@@H]1[C@H](O)c2c(c3c(c4c(-c5ccccc5)cc(=O)oc24)OC(C)(C)C=C3)O[C@@H]1C [Inophyllum A]', 'pIC50', '=', 5.05),
  ('C[C@@H]1[C@H](O)c2c(c3c(c4c(-c5ccccc5)cc(=O)oc24)O[C@@H]2[C@H]3C2(C)C)O[C@@H]1C [Inophyllum G1]', 'pIC50', '<', 4.30),
  ('C[C@@H]1C(=O)c2c(c3c(c4c(-c5ccccc5)cc(=O)oc24)OC(C)(C)C=C3)O[C@@H]1C [Inophyllum E]', 'pIC50', '<', 4.30);
